# protocol.text: S6 kinase pathway phospho-S6 level changes – cell-based, A549, cytoblot, luminescence, serum-stimulated, primary screen (AID 1158);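 note: serum-stimulated A549 lung adenocarcinoma cells; signal is phosphorylated S6 detected by cytoblot immunostaining with HRP secondary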
# conditions: 5 h, higher = more signal

{"compound": "COCCCNC(=O)[C@@]1(Cc2ccccc2I)c2ccccc2C(=O)N(Cc2ccccc2)[C@H]1c1ccc(CO)cc1", "z-score": -0.231}
{"compound": "Cc1ccc(S[C@]2(C(=O)NCC(C)C)CC(=O)N(Cc3ccccc3)[C@@H]2c2ccc(CO)cc2)cc1", "z-score": 0.138}
{"compound": "COCCCNC(=O)[C@]1(Cc2ccccc2N=[N+]=[N-])N=C(c2ccc(OCCCO)cc2)O[C@@H]1c1ccccc1CN=[N+]=[N-]", "z-score": 1.97}
{"compound": "Cc1ccc(S(=O)(=O)N2CC(C(=O)O)=CCC2c2ccccc2)cc1 (stereo not given)", "z-score": -0.55}
{"compound": "O=C1OCCC/C=C\\[C@H]2OC34C=CCN(Cn5nnc6ccccc65)C(=O)[C@H]3N(CCCO)C(=O)[C@@H]4C12 (stereo not given in full)", "z-score": 1.16}
{"compound": "CCCCN1CC=CC23O[C@@H]4C=CCCOC(=O)C4[C@H]2C(=O)N(CCCO)[C@@H]3C1=O (stereo not given in full)", "z-score": 0.243}
{"compound": "O=C(NCC(O)CO)[C@@]1(Cc2ccccc2)COC(c2ccc(OCCCO)cc2)=N1 (stereo not given in full)", "z-score": -0.404}
{"compound": "CS(=O)(=O)CCOC(=O)C1=CC(c2ccc(CO)cc2)=CC(c2cccs2)N(Cc2cccc(OC(F)(F)F)c2)C=C1C(=O)OCCS(C)(=O)=O (stereo not given)", "z-score": 0.158}
{"compound": "COc1ccc(C#Cc2ccc3c(c2)[C@]2(C(=O)N3)[C@H](C(=O)N3CCN(c4ncccn4)CC3)[C@H]3C(=O)O[C@H](c4ccccc4)[C@H](c4ccccc4)N3[C@@H]2c2ccc(O)cc2)cc1", "z-score": -0.2}
{"compound": "C=C(CCCC)/C(=C/C[C@@H](OC(=O)c1ccncc1)c1ccc(CO)o1)c1cc(C(=O)OC)ccc1OC", "z-score": 0.739}
{"compound": "CCCNC(=O)[C@@]1(C)c2ccccc2C(=O)N(C(C)C)[C@H]1c1ccc(CO)cc1", "z-score": 2.12}
{"compound": "CN1C(=O)C2C=CC(C(O)C3=C[C@H]4C[C@@H](C3)C4(C)C)N(Nc3ccc([N+](=O)[O-])cc3[N+](=O)[O-])C2C1=O (stereo not given in full)", "z-score": -0.456}
{"compound": "Cc1ccc(N2C(=O)c3ccccc3[C@](C)(C(=O)NCCN3CCOCC3)[C@@H]2c2ccc(CO)cc2)nc1", "z-score": -0.113}
{"compound": "COC(=O)[C@@]1(Cc2ccc(F)cc2)[C@H]2c3cc(C(=O)N(C)C)n(CCc4c[nH]c5ccc(OC)cc45)c3C[C@H]2CN1C(=O)c1ccccc1", "z-score": 1.87}
{"compound": "C=C[C@@H](C)[C@@H](OC(=O)Nc1ccc(OC)cc1)c1ccc(O)c2ccccc12", "z-score": 0.382}

* * *

# protocol.text: plasmodial surface anion channel blockers, osmotic lysis – cell-based, P. falciparum Indochina, OD700, 1 h, primary screen (AID 1154)
# conditions: P. falciparum Indochina infected RBC osmotic lysis, higher = more signal, called active from +8 up or from −8 down
Assign Y to entries whose z-score meets or exceeds 3; assign N to the rest.

{"chem.smiles": "COc1ccc([Si](C)(C)[C@@H]2[C@@H](CCO)O[C@]3(C(=O)N(Cc4ccccc4)c4ccc(N(C=O)c5ccccc5)cc43)[C@H]2C)cc1", "classification": "N"}
{"chem.smiles": "COC(=O)[C@@]1(Cc2ccc(F)cc2)[C@H]2c3cc(C(=O)N(C)C)n(CCc4c[nH]c5ccc(OC)cc45)c3C[C@H]2CN1C(=O)c1ccccc1", "classification": "Y"}
{"chem.smiles": "CC(C)C(=C=CC[C@H](O)c1ccccc1OCCO)CCO", "classification": "N"}
{"chem.smiles": "Cc1ccc(F)cc1S(=O)(=O)N[C@@H]1CCN(Cc2ccc(C(F)(F)F)cc2)C1", "classification": "Y"}
{"chem.smiles": "C=CCOC(=O)[C@@H]1[C@H]2C(=O)O[C@H](c3ccccc3)[C@H](c3ccccc3)N2[C@H](c2ccc(OCCOC(=O)[C@H]3C[C@H]4C(=O)N[C@@H](CCCC[N+](C)(C)C)C(=O)N4[C@H]3c3cccc(OCCO)c3)cc2)[C@@]12C(=O)Nc1ccc(I)cc12", "classification": "Y"}
{"chem.smiles": "CCOC(=O)C[C@H]1[C@H](OC(=O)c2ccccc2-c2ccccc2)[C@@H](NC(=O)c2ccc(-c3ccccc3)cc2)c2cc(OCCCO)ccc2N1C(=O)c1ccccc1", "classification": "N"}
